- Assay Method Text: ATG_SREBP_CIS: Attagene CIS-FACTORIAL HepG2 Assay for human Sterol Regulatory Element Binding (SREBP) (AID 2282962)
- Condition Context: HepG2 Attagene cis-factorial SREBP reporter, mRNA; actives raise or lower the signal
Calls of active or inactive are those of the source. The calls were made as follows: active = hit-call score of the fitted dose curve at least 0.9, where 1 is the maximum; inactive = score below 0.9.
Reply using exactly one outcome from true (active), false (inactive)

Input: What outcome does the record of this test show for `CCC(=O)Nc1ccc(Cl)c(Cl)c1` ?
Output: true

Input: Entry to check: `CN1COCN(Cc2cnc(Cl)s2)C1=N[N+](=O)[O-]`
Output: false

Input: Entry to check: `Nc1c(Cl)cc([N+](=O)[O-])cc1Cl`
Output: false

Input: Entry to check: `CSC1=N[C@@](C)(c2ccccc2)C(=O)N1Nc1ccccc1`
Output: false

Input: Entry to check: `CN(C)NC(=O)CCC(=O)O`
Output: false

Input: Entry to check: `C=C(C)[C@H]1Cc2c(ccc3c2O[C@@H]2COc4cc(OC)c(OC)cc4[C@@H]2C3=O)O1`
Output: true

All figures here come from PubChem BioAssay (EPA / NIEHS).
